- Assay Info: Cmax in cystic fibrosis patient at 2 gram, iv administered in 5 mins infusion
- Format: ADME, organism-based
- Set-up: route intravenous
- Applied Conditions: human, in vivo
Endpoint: Cmax (µg/mL)
Reply with just the number (in µg/mL).

Specify reported Cmax for the compound shown: CC(C)(O/N=C(\C(=O)N[C@@H]1C(=O)N2C(C(=O)[O-])=C(C[n+]3ccccc3)CS[C@H]12)c1csc(N)n1)C(=O)O 445

----------
- Assay Info: Mean residence time in cystic fibrosis patient at 2 gram, iv administered in 5 mins infusion
- Format: ADME, organism-based
- Applied Conditions: human, in vivo
Endpoint: MRT (h)
Reply with just the number (in h).

Specify reported MRT for the compound shown: CC(C)(O/N=C(\C(=O)N[C@@H]1C(=O)N2C(C(=O)[O-])=C(C[n+]3ccccc3)CS[C@H]12)c1csc(N)n1)C(=O)O 1.54
